Some binders, each annotated with its measured Fraction of Input recovered at pH2.0.
- measured.on: Human Neutrophil Elastase (human, UniProt P08246)
- procedure.summary: pH elution of display phage from hNE beads, abbreviated protocol

For orientation, consider the following solved cases.
| binder | Fraction of Input recovered at pH2.0 |
| --- | --- |
| MUTQE display phage (designed binder) RPDFCQLGYSAGPCVAMFPRYFYNGTSMACETFVYGGCMGNGNNFVTEKDCLQTCRGA | 0.00053 fraction of input |
| MUTP1 display phage (designed binder) RPDFCQLGYSAGPCIGMFSRYFYNGTSMACETFQYGGCMGNGNNFVTEKDCLQTCRGA | 0.00012 fraction of input |
| AMINO2 display phage (designed binder) KPDSCQLGYSAGPCVAMFPRYFYNGTSMACETFQYGGCMGNGNNFVTEKDCLQTCRGA | 4.5e-05 fraction of input |

Provide measured Fraction of Input recovered at pH2.0 value, entry: MA-BITI-E7-141 display phage (designed binder) RPDFCQLGYSAGPCVAMFPRYFYNGTSMACQTFVYGGCMGNGNNFVTEKDCLQTCRGA 0.00054 fraction of input
